This collection of values is drawn from patent US20120316071A1.

# Tested target: T1, rHuman P-Cadherin/Fc Chimera, CF (R&D Systems Cat#861-PC) (human, UniProt P22223 108-654)
# T1 construct: Bought protein; Fc part of the bought chimera not given
# Run description: ECL multispot (MSD) assay; antigen spotted on plate, Fab in solution;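 also: purified Fab incubated 1 hour at 20 °C in 1% BSA TBST on antigen-coated wells, detected with TAG antibody, ECL read on Sector Imager 2400, compared to each well's blank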
Attribute measured: ECL signal (ECL signal)
Number only, in ECL signal; omit the unit.

Solved cases below.
- Fab VH1-46_IGHD6-6*01_IGHJ1*01 S102A/S103P/S104F (APF) & L6_IGKJ1*01 S30T (Fab, V domains shown, Tested as Fab made in E. coli; The heavy chain vector (Plasmid A) adds CH1 with His and Flag tags, the kappa vector (Plasmid C) adds CL kappa; also called APF / S30T) VH: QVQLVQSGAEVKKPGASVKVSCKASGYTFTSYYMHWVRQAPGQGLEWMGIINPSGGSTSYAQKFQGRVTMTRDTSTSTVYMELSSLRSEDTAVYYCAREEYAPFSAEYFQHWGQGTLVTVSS VL: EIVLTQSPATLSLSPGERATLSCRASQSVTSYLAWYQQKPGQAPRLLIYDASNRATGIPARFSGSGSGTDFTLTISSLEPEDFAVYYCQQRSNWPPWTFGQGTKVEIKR: 195
- Fab VH1-46_IGHD6-6*01_IGHJ1*01 S102A/S103P/S104F (APF) & L6_IGKJ1*01 S30L (Fab, V domains shown, Tested as Fab made in E. coli; The heavy chain vector (Plasmid A) adds CH1 with His and Flag tags, the kappa vector (Plasmid C) adds CL kappa; also called APF / S30L) VH: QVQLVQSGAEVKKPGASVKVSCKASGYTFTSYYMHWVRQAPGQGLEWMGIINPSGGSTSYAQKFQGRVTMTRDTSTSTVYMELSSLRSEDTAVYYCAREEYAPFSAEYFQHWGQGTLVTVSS VL: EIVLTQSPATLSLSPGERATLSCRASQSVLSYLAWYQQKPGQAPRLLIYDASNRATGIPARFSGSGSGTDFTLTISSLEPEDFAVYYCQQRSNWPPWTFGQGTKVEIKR: 260
- Fab VH1-46_IGHD6-6*01_IGHJ1*01 S102A/S103P/S104F (APF) & L6_IGKJ1*01 S30W (Fab, V domains shown, Tested as Fab made in E. coli; The heavy chain vector (Plasmid A) adds CH1 with His and Flag tags, the kappa vector (Plasmid C) adds CL kappa; also called APF / S30W) VH: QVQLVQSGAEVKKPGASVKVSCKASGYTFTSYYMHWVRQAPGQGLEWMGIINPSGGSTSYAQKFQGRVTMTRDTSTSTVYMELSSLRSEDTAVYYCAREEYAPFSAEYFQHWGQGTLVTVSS VL: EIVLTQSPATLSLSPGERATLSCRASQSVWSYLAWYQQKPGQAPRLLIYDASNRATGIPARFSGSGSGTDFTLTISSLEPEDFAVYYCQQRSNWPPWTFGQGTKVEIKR: 39

Enquiry: Item under review: Fab VH1-46_IGHD6-6*01_IGHJ1*01 S102A/S103P/S104F (APF) & L6_IGKJ1*01 S30R (Fab, V domains shown, Tested as Fab made in E. coli; The heavy chain vector (Plasmid A) adds CH1 with His and Flag tags, the kappa vector (Plasmid C) adds CL kappa; also called APF / S30R) VH: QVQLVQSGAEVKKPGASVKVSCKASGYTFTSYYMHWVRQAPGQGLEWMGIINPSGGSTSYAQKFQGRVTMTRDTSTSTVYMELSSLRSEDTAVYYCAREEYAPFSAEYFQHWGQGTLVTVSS VL: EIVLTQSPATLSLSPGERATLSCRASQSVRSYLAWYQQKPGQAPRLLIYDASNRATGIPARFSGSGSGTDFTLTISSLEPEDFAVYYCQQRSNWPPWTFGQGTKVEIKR . Reported ECL signal?
Return: 39
